Kindly state Kd for each of the entries shown.
SYSTEM_NAME: T1, His-tagged human CD38 (ACRO Biosystems CD8-H5224) (human, UniProt P28907 43-300)
T1 construct: bought protein; used for ELISA coating and as SPR analyte; not shown: His tag
MEASUREMENT_PROTOCOL: SPR (second run), His-tagged CD38
Please give a number only; it is taken to be in nM.

Q: Look up Kd: 40769p1.2.B10 (scFv, V domains shown) VH: EVQLLESGGGLVQPGGSLRLSCPASGFDFSSYWMTWVRQAPGKGLEWVSTITDSGGRAWYADSVRGRFTISRDNSKNTLYLQMNSLRAEDTAVYYCARDTPKTYYYYAMDVWGQGTTVTV VL: QSALTQPPSASGTPGQRVTISCSGSSSNIQYSYVSWYQQLPGTAPKLLIYNNVQRPSGVPDRFSGSKSGTSASLAISGLQSEDEADYYCATWDESLLGLWVFGGGTKLTVL
A: 2.49

Q: Further, for 40617p1.1.F1 (scFv, V domains shown) VH: KVQLLESGGGLVQPGGSLRLSCAASGFTFSSYSMTWVRQAPGKGLEWVSRIYNGGSTYYADSVKGRFTISRDNSKNTLYLQMNSLRAEDTAVYYCARDTYAIDVWGQGTTVTVSS VL: EIVLTQSPATLSVSPGERATLSCRASQGIAGNLAWYQQKPGQAPRLLIYAASNRATGIPARFSGSGSGTDFTLTISSLQSEDFAVYYCQHYYDWPPYSFGGGTKVEIK ?
A: 119

Q: Moving on to the next binder: 40769p1.1.G5 (scFv, V domains shown) VH: EVQLLESGGGFVQPGGSLRLSCAASGFNFNNAWMNWVRQAPGKGLEWVGIINGDGTNTYYADSVKGRFTISRDNSKNTLYLQMSSLRAEDTAIYYCARDNKLNDYYYAMDVWGQGTTVTV VL: QSVLTQPSSASGTPGQRVTISCSGGSSNIHANYVYWYQQLPGTAPKLLIYRNSQRPSGVPDRFSGSKSGTSASLAISGLQSEDEADYYCGTWDNILNVWVFGGGTKLTVL
A: 7.56

Q: Another binder to check: 40596p1.E4 (scFv, V domains shown) VH: EVQLLESGGGLVQPGGSLRLSCAASGFDFSGSAMSWVRQAPGKGLEYVAGLGWSGSFIYYADSVKGRSTISRDNSKNTLYLQLNSLRAEDTAVYYCARNPGFGEMDVWGQGTTVTVSS VL: EIVLTQSPGSLSLSPGERATLSCRASQTVGSNLAWYQQKPGQAPRLLIYGASTRATDIPDRFSGSGSGTEFTLTISSLQSEDFAVYYCQQYNSWPPLTFGGGTKVEIK
A: 26.4

Q: Param item: 40769p1.1.B8 (scFv, V domains shown) VH: EVQLLESGGGLVQPGGSLRLSCAASGFTFEDYAMSWVRQAPGKGLEWVSVISSKGGSTSNADSVKGRFTISRDNSKNTLYLQMNSLRAEDTAVYYCAKGMERQYYSYNAMDVWGQGTTVTVSS VL: QSVLTQPPSASGTPGQRVTISCSGSNSNIDVDYVYWYQQLPGTAPRLLIYKDDQRPSGVPDRFSGSKSGTSASLAISGLQSEDEADYYCATWDDNLNSWLFGGGTKLTVL
A: 0.25
